Source of measurements: patent US20120208867

biological target: His-tagged HMGB1 (UniProt P09429 P09429:1-215); assay: SPR; 150 nM protein; settings: tags: N-terminal His-tag
Sequence (P09429 whole entry, one chain of several): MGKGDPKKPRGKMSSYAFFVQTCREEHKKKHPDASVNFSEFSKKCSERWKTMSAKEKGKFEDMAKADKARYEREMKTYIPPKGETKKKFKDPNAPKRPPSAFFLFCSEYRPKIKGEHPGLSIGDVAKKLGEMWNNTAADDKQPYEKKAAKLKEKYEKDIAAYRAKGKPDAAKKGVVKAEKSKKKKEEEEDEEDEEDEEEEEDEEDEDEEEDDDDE
Quantity name: binding result

[
  {
    "Binder": "GGGAGUAAGACACGUAGCACCAGUGUGCCUGGACGUGCAGU (ssRNA, 2'-F on all C and U) [2'F-R8c6_1-23-S6]",
    "Measured": "binds"
  },
  {
    "Binder": "GGGACAGUAAGACACGUAGCACCAGUGUGCCUGGACGUGCAGU (ssRNA) [R8c6_1-21-S6]",
    "Measured": "binds"
  },
  {
    "Binder": "GGGGUAAGACACGUAGCACCAGUGUGCCUGGACGUGCAGU (ssRNA, 2'-F on all C and U) [2'F-R8c6_1-24-S6]",
    "Measured": "binds"
  }
]
